# Parameters: species or system Fischer 344 rats
# measurement_parameters: male, Fischer 344, rat, in vivo, po, 32 mg/kg

[
  {
    "compound": "Nc1ccc2c(c1)CN1C(=O)c3ccccc3C1=N2 [batracylin]",
    "AUC(0-inf) / µg·h/mL": 0.144
  }
]

----------
# Set-up: species or system Fischer 344 rats
# measurement_parameters: male, Fischer 344, rat, in vivo, po, 16 mg/kg
measured_property: k el

[
  {
    "compound": "Nc1ccc2c(c1)CN1C(=O)c3ccccc3C1=N2 [batracylin]",
    "measured_property": "k el",
    "measured_value": "4.83e-05 s⁻¹"
  }
]

----------
# Parameters: species or system Fischer 344 rats
# measurement_parameters: male, Fischer 344, rat, in vivo, po, 32 mg/kg

[
  {
    "molecule": "Nc1ccc2c(c1)CN1C(=O)c3ccccc3C1=N2 [batracylin]",
    "Tmax": "4 h"
  }
]

----------
# Design: species or system Fischer 344 rats
# measurement_parameters: male, Fischer 344, rat, in vivo, po, 32 mg/kg, half-life
measured_property: half-life

[
  {
    "compound": "Nc1ccc2c(c1)CN1C(=O)c3ccccc3C1=N2 [batracylin]",
    "measured_value": "4 to 11 h"
  }
]

----------
# Design: species or system Fischer 344 rats
# measurement_parameters: male, Fischer 344, rat, in vivo, po, 32 mg/kg
measured_property: AUC(0-t) (ng·h/mL)

[
  {
    "chemical_smiles": "Nc1ccc2c(c1)CN1C(=O)c3ccccc3C1=N2",
    "measured_value": 112
  }
]

----------
# Parameters: species or system Fischer 344 rats
# measurement_parameters: male, Fischer 344, rat, in vivo, po, 16 mg/kg, Half-life
measured_property: half-life

[
  {
    "chemical_smiles": "Nc1ccc2c(c1)CN1C(=O)c3ccccc3C1=N2",
    "measured_value": "4 h"
  }
]

----------
# Design: species or system Fischer 344 rats
# measurement_parameters: male, Fischer 344, rat, in vivo, po, 16 mg/kg

[
  {
    "chemical_smiles": "Nc1ccc2c(c1)CN1C(=O)c3ccccc3C1=N2",
    "unit_abbreviation": "ng·h/mL",
    "AUC(0-t)": 98.3
  }
]

----------
# Set-up: species or system Fischer 344 rats
# measurement_parameters: male, Fischer 344, rat, in vivo, po, 32 mg/kg
measured_property: Cmax

[
  {
    "chemical_smiles": "Nc1ccc2c(c1)CN1C(=O)c3ccccc3C1=N2",
    "measured_value": "11.8 ng/mL"
  }
]
